- target_or_system: α5β3γ2 receptor (Homo sapiens, UniProt P18507+P31644)
- Construct: expressed in transfected cells; host or cells: HEK-293 (stably transfected)
- Sequence (P31644 32-462): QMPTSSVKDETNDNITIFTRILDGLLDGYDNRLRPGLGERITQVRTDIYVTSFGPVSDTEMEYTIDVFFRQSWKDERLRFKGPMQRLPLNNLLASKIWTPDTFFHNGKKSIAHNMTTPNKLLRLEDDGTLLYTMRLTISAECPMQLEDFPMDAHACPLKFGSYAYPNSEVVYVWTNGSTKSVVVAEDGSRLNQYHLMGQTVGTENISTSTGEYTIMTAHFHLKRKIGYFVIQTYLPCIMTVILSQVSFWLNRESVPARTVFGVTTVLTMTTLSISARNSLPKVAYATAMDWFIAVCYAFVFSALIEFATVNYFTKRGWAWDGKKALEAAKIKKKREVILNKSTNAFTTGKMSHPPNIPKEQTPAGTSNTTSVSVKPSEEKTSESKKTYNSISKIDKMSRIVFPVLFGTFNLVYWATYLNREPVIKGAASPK
- Sequence (P28472 26-473 isoform P28472-2 partner limits assumed): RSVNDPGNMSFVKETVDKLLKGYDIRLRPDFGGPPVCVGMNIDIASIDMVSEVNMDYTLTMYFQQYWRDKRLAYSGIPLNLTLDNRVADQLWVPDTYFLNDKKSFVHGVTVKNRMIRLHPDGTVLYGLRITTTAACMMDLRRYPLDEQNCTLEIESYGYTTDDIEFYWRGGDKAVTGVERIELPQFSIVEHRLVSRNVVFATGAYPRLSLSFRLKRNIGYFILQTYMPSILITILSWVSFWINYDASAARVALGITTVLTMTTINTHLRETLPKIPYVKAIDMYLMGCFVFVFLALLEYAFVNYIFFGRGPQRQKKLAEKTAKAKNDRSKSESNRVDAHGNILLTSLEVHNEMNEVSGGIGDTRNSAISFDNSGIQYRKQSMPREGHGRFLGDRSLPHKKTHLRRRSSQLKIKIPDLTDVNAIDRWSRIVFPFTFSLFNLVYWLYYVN
- Sequence (P18507 40-475): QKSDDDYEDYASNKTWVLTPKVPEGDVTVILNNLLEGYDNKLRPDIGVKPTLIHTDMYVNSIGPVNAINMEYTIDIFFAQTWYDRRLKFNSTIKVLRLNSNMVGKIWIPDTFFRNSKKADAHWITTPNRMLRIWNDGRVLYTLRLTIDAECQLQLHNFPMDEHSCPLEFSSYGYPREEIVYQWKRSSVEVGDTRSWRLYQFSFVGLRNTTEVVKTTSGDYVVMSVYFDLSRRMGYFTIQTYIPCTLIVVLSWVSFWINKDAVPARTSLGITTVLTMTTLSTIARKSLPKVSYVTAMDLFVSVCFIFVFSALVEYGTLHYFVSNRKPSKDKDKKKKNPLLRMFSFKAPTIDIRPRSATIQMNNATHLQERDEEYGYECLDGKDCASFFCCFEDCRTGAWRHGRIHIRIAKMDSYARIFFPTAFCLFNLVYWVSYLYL
- method_description: Cell level screening: whole cell patch clamp, inverse agonist efficacy
- Assay type: cell-based
- settings: ratio to α5IA; compound 100 nM
quantity_measured: inverse agonism efficacy of the compound/α5IA inverse agonism efficacy
Keep the answer to the number alone.

Answered cases to consult:
line_notation=Cc1cc(-c2nnc3c4ccccc4c(OCc4ccc(C(=O)N(C)C)cn4)nn23)no1 measured_number=1.596
line_notation=O=C(c1ccc(COc2nn3c(-c4cc(CO)on4)nnc3c3ccccc23)nc1)N1CCS(=O)(=O)CC1 measured_number=1.286
line_notation=Cc1cc(-c2nnc3c4ccccc4c(OCc4ccc(C(=O)N[C@H](C)CO)cc4Br)nn23)no1 measured_number=1.739

# input For the molecule "Cc1nc(-c2nnc3c4ccccc4c(OCc4ccc(C(=O)N[C@H](C)CO)cc4C#N)nn23)no1" , report inverse agonism efficacy of the compound/α5IA inverse agonism efficacy.
# output 2.1179

# input Write down inverse agonism efficacy of the compound/α5IA inverse agonism efficacy measured for item "O=C(NN1CCOCC1)c1ccc(COc2nn3c(-c4cc(CO)on4)nnc3c3ccccc23)nc1"
# output 1.463

# input // fetch inverse agonism efficacy of the compound/α5IA inverse agonism efficacy given entry "Cc1cc(-c2nnc3c4ccccc4c(OCc4ccc(C(=O)N[C@H](C)CO)cn4)nn23)no1"
# output 2.313

# input Give a short answer stating reported inverse agonism efficacy of the compound/α5IA inverse agonism efficacy for "CCNC(=O)c1ccc(COc2nn3c(-c4cc(C)on4)nnc3c3ccccc23)nc1" .
# output 1.1

# input Report inverse agonism efficacy of the compound/α5IA inverse agonism efficacy, nothing else, for this molecule: "Cc1cc(-c2nnc3c4ccccc4c(OCc4ccc(C(=O)NN5CCOCC5)cn4)nn23)no1"
# output 2.572

Just for reference, patent US11220503B2 is where these values come from.
